So I've got a bunch of molecules here, and I need their Population Normal (%) values.
- System: Fibroblast
- assay_comment: Multiplex assay against human fibroblast
- Assay type: toxicity, cell-based
- conditions_used: 12 h, 10 µM, compound concentration 10 uM, replicate 2
One number for each entry, in %.

Look over these answered cases.
molecule	value
Cc1sc2c(c1C)C(c1ccc(Cl)cc1)=N[C@H](CC(=O)OC(C)(C)C)c1nnc(C)n1-2	94
S=C(NCCCc1c[nH]cn1)NCCCN(Cc1ccc(Cl)c(Cl)c1)c1ccc(Br)cn1	94
Cc1ccc(OCC(O)C(C)NC(C)C)c2c1CCC2.Cl (centres undefined)	97

# get_value(readout='Population Normal (%)', item= CN(C)C/C=C/C(=O)Nc1ccc(C(=O)N2CCCC(Nc3ncc(Cl)c(-c4c[nH]c5ccccc45)n3)C2)cc1 (centres undefined) )
91
